Form field: EC50 (one value per entry).
Target: hAT1R (Homo sapiens)
Sequence (P30556 1-359): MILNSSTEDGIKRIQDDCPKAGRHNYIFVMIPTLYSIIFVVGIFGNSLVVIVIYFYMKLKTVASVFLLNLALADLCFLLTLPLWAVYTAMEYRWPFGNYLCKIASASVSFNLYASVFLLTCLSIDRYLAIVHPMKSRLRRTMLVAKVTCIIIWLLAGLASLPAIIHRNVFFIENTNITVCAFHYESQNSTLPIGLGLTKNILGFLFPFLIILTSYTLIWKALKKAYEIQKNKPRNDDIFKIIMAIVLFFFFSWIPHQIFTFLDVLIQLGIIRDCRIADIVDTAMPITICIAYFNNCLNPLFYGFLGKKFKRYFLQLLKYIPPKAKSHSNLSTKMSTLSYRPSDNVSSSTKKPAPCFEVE
Experiment: cell-based
Settings: section of the 42nd table ending at r951, example numbering restarts after the DiscoveRx section; read-out: β-arrestin2 EC50

Illustrative cases are given below, each with its answer.
CCCCc1nc(Cl)c(C(=O)O)n1Cc1ccc(-c2cc(-c3ccccc3)ccc2-c2noc(=O)[nH]2)cc1 [Example 404]
69.4 nM
CCc1nc2c(C)cc(C)nc2n1Cc1ccc(-c2cc(-c3cc(C)cc(C)n3)ccc2C(=O)O)cc1 [Example 194]
295 nM

Could you now consider this next compound?
Incoming: What value of EC50 has been recorded for this entry: CCc1nc2c(C)cc(C)nc2n1Cc1ncc(-c2cc(-c3ccccc3O)ccc2-c2nnn[nH]2)cn1 [Example 189]
Outgoing: 49.2 nM

* * *

Target: hAT1R (Homo sapiens, UniProt P30556)
Assay: cell-based
Conditions: agonist mode
Quick rule for you: BRET P63 Ymax at 10% or higher means 1 (yes), lower means 0 (no).

Previously resolved entries follow.
CCc1nc2c(C)cc(C)nc2n1Cc1ccc(-c2cc(-c3cn(CC4CC4)nn3)ccc2-c2nnn[nH]2)cc1 [Example 237]
1 (yes)
CCCCC(=O)N(Cc1ccc(-c2cc(-c3cc(C)ccn3)ccc2-c2nn[nH]n2)cc1)C1(C(=O)O)CCCCC1 [Example 295]
1 (yes)
CCc1nc2c(C)cc(C)nc2n1Cc1ccc(-c2cc(N3CCC4(CCOC4)C3)ccc2-c2nn[nH]n2)cc1 (centres unmarked) [Example 92]
1 (yes)
CCc1nc2c(C)cc(C)nc2n1Cc1ccc(-c2cc(-c3cc(C)cc(C)c3)ccc2-c2nn[nH]n2)cc1 [Example 9]
1 (yes)
CCc1nc2c(C)cc(C)nc2n1Cc1ccc(-c2cc(Oc3ccccc3F)ccc2-c2nnn[nH]2)cc1 [Example 205]
1 (yes)

Incoming: Test whether the molecule CCc1nc2c(C)cc(C)nc2n1Cc1ccc(-c2cc(Oc3cncnc3)ccc2-c2nnn[nH]2)cc1 [Example 258] records BRET P63 Ymax of 10% or higher.
Outgoing: 1 (yes)

Incoming: Test whether the molecule CCc1nc2c(C)cc(C)nc2n1Cc1ncc(-c2cc(-c3cccc(C)c3)ccc2C(=O)O)cn1 [Example 198] records BRET P63 Ymax of 10% or higher.
Outgoing: 1 (yes)

Incoming: Test whether the molecule CCc1nc2c(C)cc(C)nc2n1Cc1ccc(-c2cc(-c3ccccc3)ccc2-c2nn[nH]n2)cc1 [Example 4] records BRET P63 Ymax of 10% or higher.
Outgoing: 1 (yes)

Incoming: Test whether the molecule CCOc1nc2cccc(C(=O)O)c2n1Cc1ccc(-c2cc(-c3cc(OC)ccn3)ccc2-c2nn[nH]n2)cc1 [Example 310] records BRET P63 Ymax of 10% or higher.
Outgoing: 1 (yes)

Incoming: Test whether the molecule CCOc1nc2cccc(C(=O)O)c2n1Cc1ccc(-c2cc(-c3cccc(C)c3)ccc2C(=O)O)cc1 [Example 313] records BRET P63 Ymax of 10% or higher.
Outgoing: 0 (no)

Incoming: Test whether the molecule CCOc1nc2cccc(C(=O)O)c2n1Cc1ccc(-c2cc(-c3c[nH]c4ccccc34)ccc2-c2noc(=O)[nH]2)cc1 [Example 322] records BRET P63 Ymax of 10% or higher.
Outgoing: 0 (no)

Incoming: Test whether the molecule CCCC1=NC2(CCOC2)C(=O)N1Cc1ccc(-c2cc(-c3ccccc3F)ccc2-c2nnn[nH]2)cc1 (single isomer, unassigned) [Example 161] records BRET P63 Ymax of 10% or higher.
Outgoing: 1 (yes)

Incoming: Test whether the molecule CCc1nc2c(C)cc(C)nc2n1Cc1ccc(-c2cc(-c3cccc(C)c3)ccc2C(=O)O)nc1 [Example 203] records BRET P63 Ymax of 10% or higher.
Outgoing: 0 (no)

Incoming: Test whether the molecule CCOc1nc2cccc(C(=O)O)c2n1Cc1ccc(-c2cc(-c3ccc(C)cn3)ccc2-c2noc(=O)[nH]2)cc1 [Example 300] records BRET P63 Ymax of 10% or higher.
Outgoing: 1 (yes)

* * *

Form field: EC50 (one value per entry).
Molecular target: AGTR1 (Homo sapiens)
Construct: host or cells: Pathunter CHO-K1 AGTR1 β-arrestin cell line (CHO-K1)
Assay: DiscoveRx β-arrestin2 recruitment assay (enzyme complementation, Pathunter CHO-K1 AGTR1 β-arrestin cell line)
Format: cell-based
Settings: DiscoveRx β-arrestin2 recruitment
Protocol: In one aspect of the invention, signaling bias of compounds was assessed by comparing the relative activity of compounds to activate both the β-arrestin and Gq signaling pathways. In order to confirm signaling bias, compounds were studied in two different assay formats. DiscoveRx β-arrestin2 Recruitment and IP1 Assays β-arrestin2 recruitment to activated receptors can be assessed using an enzyme complementation method (Zhao, Jones et al. 2008). […]
Numeric answer only, unit nM assumed.

CCCCc1ncc(C(=O)NCCC(C)C)n1Cc1ccc(-c2cc(-c3ccccc3)ccc2-c2nn[nH]n2)cc1 [Example 366]
11.1

Incoming: What value of EC50 has been recorded for this entry: CCc1nc2c(C)cc(C)nc2n1Cc1ccc(-c2cc(-c3cccc(OC)c3)ccc2-c2nn[nH]n2)cc1 [Example 20]
Outgoing: 4.9

Incoming: What value of EC50 has been recorded for this entry: CCc1nc2c(C)cc(C)nc2n1Cc1ccc(-c2cc(-c3ccccc3)ccc2-c2n[nH]c(=S)o2)cc1 [Example 246]
Outgoing: 234

Incoming: What value of EC50 has been recorded for this entry: CCCCc1ncc(C(=O)NCC2CC2)n1Cc1ccc(-c2cc(-c3ccccc3)ccc2-c2nn[nH]n2)cc1 [Example 365]
Outgoing: 46.2

Incoming: What value of EC50 has been recorded for this entry: CCCCC1=NC2(CCOC2)C(=O)N1Cc1ccc(-c2cc(-c3ccccc3F)ccc2-c2nnn[nH]2)cc1 (single isomer, unassigned) [Example 149]
Outgoing: 38.9

Incoming: What value of EC50 has been recorded for this entry: CCCCc1nc(Cl)c(C(=O)O)n1Cc1ccc(-c2cc(-c3cnn(C4CC4)c3)ccc2-c2nn[nH]n2)cc1 [Example 386]
Outgoing: 8.4

* * *

Molecular target: AGTR1 (Homo sapiens, UniProt P30556)
Construct: host or cells: Pathunter CHO-K1 AGTR1 β-arrestin cell line (CHO-K1)
Assay: DiscoveRx β-arrestin2 recruitment assay (enzyme complementation, Pathunter CHO-K1 AGTR1 β-arrestin cell line)
Format: cell-based
Conditions: DiscoveRx β-arrestin2 recruitment, maximal response
Quick rule for you: DiscoveRx β-arrestin2 Ymax (%) at 40% or higher means condition met, lower means condition not met.

Previously resolved entries follow.
CCOc1nc2cccc(C(=O)O)c2n1Cc1ccc(-c2cc(-c3ccccc3)ccc2-c2nn[nH]n2)cc1
condition met
CCCCC(=O)N(Cc1ccc(-c2cc(Oc3ccccc3)ccc2-c2nn[nH]n2)cc1)C1(C(=O)O)CCCCC1
condition not met

Incoming: Test whether the molecule CCCc1nc(C(C)(C)O)c(C(=O)OCC)n1Cc1ccc(-c2cc(-c3ccccc3)ccc2-c2nn[nH]n2)cc1 records DiscoveRx β-arrestin2 Ymax (%) of 40% or higher.
Outgoing: condition met

Incoming: Test whether the molecule CCc1nc2c(C)cc(C)nc2n1Cc1ccc(-c2cc(-c3ccccc3)ccc2C(=O)O)cn1 records DiscoveRx β-arrestin2 Ymax (%) of 40% or higher.
Outgoing: condition met

Incoming: Test whether the molecule CCCCc1ncc(C(=O)NC2CCCCCC2)n1Cc1ccc(-c2cc(-c3ccccc3)ccc2-c2nn[nH]n2)cc1 records DiscoveRx β-arrestin2 Ymax (%) of 40% or higher.
Outgoing: condition met

Incoming: Test whether the molecule CCc1nc2c(C)cc(C)nc2n1Cc1ccc(-c2cc(Oc3ccccc3F)ccc2-c2noc(=O)[nH]2)cc1 records DiscoveRx β-arrestin2 Ymax (%) of 40% or higher.
Outgoing: condition met

Incoming: Test whether the molecule CCc1nc2c(C)cc(C)nc2n1Cc1ccc(-c2cc(N3CC(C)(C)c4ccccc43)ccc2-c2nn[nH]n2)cc1 records DiscoveRx β-arrestin2 Ymax (%) of 40% or higher.
Outgoing: condition not met

Incoming: Test whether the molecule CCc1nc2c(C)cc(C)nc2n1Cc1ccc(-c2cc(N3CCC[C@@H](C)C3)ccc2-c2nn[nH]n2)cc1 records DiscoveRx β-arrestin2 Ymax (%) of 40% or higher.
Outgoing: condition not met

Incoming: Test whether the molecule CCCCc1ncc(C(=O)NCCOC)n1Cc1ccc(-c2cc(-c3ccccc3)ccc2-c2nn[nH]n2)cc1 records DiscoveRx β-arrestin2 Ymax (%) of 40% or higher.
Outgoing: condition met

Incoming: Test whether the molecule CCCCC1=NC2(CCCC2)C(=O)N1Cc1ccc(-c2cc(-c3ccc(OC(F)F)cn3)ccc2-c2nn[nH]n2)cc1 records DiscoveRx β-arrestin2 Ymax (%) of 40% or higher.
Outgoing: condition met
